Values compiled from patent US8754079B2.

- TEST SYSTEM: MNK2 (Homo sapiens)
- Construct: the open reading frames of human Mnk1 and Mnk2a were amplified from cDNA
- Sequence (Q9HBH9 whole entry): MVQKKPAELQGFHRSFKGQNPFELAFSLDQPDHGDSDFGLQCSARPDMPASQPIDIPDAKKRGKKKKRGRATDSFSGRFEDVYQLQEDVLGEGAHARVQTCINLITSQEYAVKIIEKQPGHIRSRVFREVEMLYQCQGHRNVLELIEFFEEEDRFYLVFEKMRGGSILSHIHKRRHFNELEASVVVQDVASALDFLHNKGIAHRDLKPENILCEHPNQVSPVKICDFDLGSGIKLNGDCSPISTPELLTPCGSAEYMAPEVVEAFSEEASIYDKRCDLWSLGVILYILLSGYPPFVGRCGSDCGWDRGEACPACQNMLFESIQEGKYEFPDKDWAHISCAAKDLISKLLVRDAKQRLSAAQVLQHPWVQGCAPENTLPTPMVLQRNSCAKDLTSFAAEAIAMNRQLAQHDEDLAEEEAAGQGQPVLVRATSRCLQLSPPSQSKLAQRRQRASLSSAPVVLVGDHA
- METHOD SUMMARY: Mnk2a in vitro kinase assay (indirect fluorescence polarization)
- TEST SETTINGS: pre-activated GST-Mnk2a 2.5 nM, 20 μM ATP, 30 μM substrate peptide
MEASUREMENT KIND: IC50 (nM)
Give bare numbers, in nM.

Cc1c(C(=O)NCCCN(C)C)sc2ncnc(Nc3ccc(F)cc3O[C@H]3CC[C@H](O)CC3)c12: 11
COC(=O)c1sc2ncnc(Nc3ccc(F)cc3O[C@H]3CCCC[C@H]3O)c2c1C (single isomer, unassigned): 141
Cc1c(C(=O)NCCO)sc2ncnc(Nc3cccnc3O[C@H]3CC[C@H](O)CC3)c12: 15
Cc1c(C(=O)O)sc2ncnc(Nc3ccc(F)cc3O[C@@H]3CCCC[C@@H]3O)c12 (single isomer, unassigned): 110
CO[C@H]1CCC[C@@H](Oc2ncccc2Nc2ncnc3sc(C(=O)NCCN4CCCCC4)c(C)c23)C1 (racemic): 36
CCNC(=O)c1sc2ncnc(Nc3ccc(F)cc3O[C@H]3CC[C@H](O)CC3)c2c1C: 14

// moving on: another record for IC50
Qu. Look up IC50 for this compound: COC(=O)c1sc2ncnc(Nc3cccnc3O[C@@H]3CCC[C@H](OC)C3)c2c1C (racemic)
Ans. 9
